# Lookup of reported kon keyed by entry
molecular target: T1, biotinylated CD3 epsilon:delta heterodimer protein (Amsbio AMS.CDD-H52WO) (Homo sapiens (Human), UniProt P07766 23-126; P04234 22-105); test: BLI (Octet), CD3 on SA sensor, Fab analyte;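 also: fab analyte at several concentrations up to 300 nM, association 100 s then 300 s dissociation in buffer, biosensors blocked with biocytin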
T1 construct: also called CD3 heterodimer
Measured Attribute: kon (M⁻¹ s⁻¹)

• huSP34.35.6 Fab-HF (Fab, V domains shown, also called HC35+LC6) VH: EVQLVESGGGLVQPGGSLRLSCAASGFTFNDYAMNWVRQAPGKGLEWVGRTRSKYNNYATYYAASVKGRFTISRDDSKNSLYLQMNSLKTEDTAMYYCVRHGNFGHSYVSWFAYWGQGTLVTVSS VL: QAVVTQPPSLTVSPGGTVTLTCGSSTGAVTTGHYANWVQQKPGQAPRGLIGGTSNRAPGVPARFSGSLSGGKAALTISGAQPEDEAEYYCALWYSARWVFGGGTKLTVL = 1.55e+06
• huSP34.37.10 Fab-HF (Fab, V domains shown, also called HC37+LC10) VH: EVQLVESGGGLVQPGGSLRLSCAASGFTFNTYAMNWVRQAPGKGLEWVGRTRSKYNNYATYYAASVKGRFTISRDDSKNSLYLQMNSLKTEDTAMYYCVRHGNFGHSYVSWFAYWGQGTLVTVSS VL: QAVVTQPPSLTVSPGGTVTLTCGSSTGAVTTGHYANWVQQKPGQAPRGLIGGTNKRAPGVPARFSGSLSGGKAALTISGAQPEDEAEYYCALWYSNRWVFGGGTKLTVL = 171000
• huSP34.34.15 Fab-HF (Fab, V domains shown, also called HC34+LC15) VH: EVQLVESGGGLVQPGGSLRLSCAASGFTFNTYAMNWVRQAPGKGLEWVGRIRSKYNNYATYYAASVKGRFTISRDDSKNSLYLQMNSLKTEDTAMYYCVRHGNFGHSYVSWFAYWGQGTLVTVSS VL: QAVVTQPPSLTVSPGGTVTLTCGSSTGAVTTGHYANWVQQKPGQAPRGLIGGTNKRAPGVPARFSGSLSGGKAALTISGAQPEDEAEYYCALWYSARWVFGGGTKLTVL = 109000
